Target: T1, Cynomolgus monkey DLL3 antigen protein (Kactus Biosystems, Cat. No. CM103) (Cynomolgus monkey, UniProt Q9NYJ7 27-490 (human entry))
T1 construct: also called cyno DLL3
T1 chain: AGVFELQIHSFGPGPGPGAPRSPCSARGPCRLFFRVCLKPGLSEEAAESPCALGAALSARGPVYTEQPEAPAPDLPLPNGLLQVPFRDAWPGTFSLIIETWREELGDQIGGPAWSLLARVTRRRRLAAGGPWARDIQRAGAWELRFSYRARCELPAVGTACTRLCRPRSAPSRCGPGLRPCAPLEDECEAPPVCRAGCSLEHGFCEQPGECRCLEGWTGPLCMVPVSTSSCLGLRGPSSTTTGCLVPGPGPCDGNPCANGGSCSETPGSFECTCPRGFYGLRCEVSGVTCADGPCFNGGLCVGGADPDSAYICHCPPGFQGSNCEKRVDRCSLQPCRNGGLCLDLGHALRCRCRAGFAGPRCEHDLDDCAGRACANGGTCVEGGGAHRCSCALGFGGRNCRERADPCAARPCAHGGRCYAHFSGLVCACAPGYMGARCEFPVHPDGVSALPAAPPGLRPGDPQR
Assay: affinity assay with Cynomolgus monkey DLL3 antigen protein (kinetics; method not restated, Biacore as in Example 18 implied)
Reported Property: kon (M⁻¹ s⁻¹)
Numbers only, in M⁻¹ s⁻¹.

q: Please look up its kon: H2-39E2D11 mouse hybridoma-derived humanized anti-DLL3 antibody (antibody, V domains shown) VH: QVQLVQSGAEVKKPGASVKVSCKASGYTFISYWITWVRQAPGQGLEWMGDIYPGSGSTTNYNEKFKSRVTMTRDTSTSTVYMELSSLRSEDTAVYYCARETTVGGAYAMDYWGQGTLVTVSS VL: EIVLTQSPATLSLSPGERATLSCRASQSINNNLHWYQQKPGQAPRLLIKYVSQSISGIPARFSGSGSGTDFTLTISSLEPEDFAVYYCQQTNSWPLTFGGGTKLEIK
a: 221000
